Assay: Cmax in monkey at 3 mg/kg, po
Type: ADME, organism-based, Macaca mulatta
Set-up: dose 3 mg/kg, route oral
Settings: rhesus monkey, in vivo
Numbered stars: 1 amine (or outer) side, 2 acyl side, 3 side chain; on linkers, the order of the positions; unused ones are H or OH. Square brackets hold non-standard residues; d marks the D form. Peptide text beside a SMILES is read from it. * marks the point of attachment. Pro(3R,4S-CMe2) = CC1(C)[C@@H]2[C@@H](C(=O)O)NC[C@@H]21; X1 = O=C(C(=O)[*:2])C(CC1CC1)N[*:1]; Phg = N[C@H](C(=O)O)c1ccccc1; Tle = CC(C)(C)[C@H](N)C(=O)O; Boc = CC(C)(C)OC(=O)*

compound	Cmax
CN(C)C(=O)[C@@H](NC(=O)CNC(=O)C(=O)C(CC1CC1)NC(=O)[C@@H]1[C@@H]2[C@H](CN1C(=O)[C@@H](NC(=O)OC(C)(C)C)C(C)(C)C)C2(C)C)c1ccccc1 (stereo partly drawn) (Boc-[Tle][Pro(3R,4S-CMe2)][X1]G[Phg]-NMe2)	30 nM

###

Assay: AUC in rat at 10 mg/kg, po
Assay type: ADME, organism-based
Parameters: dose 10 mg/kg, route oral
Details: plasma
Numbered stars: 1 amine (or outer) side, 2 acyl side, 3 side chain; on linkers, the order of the positions; unused ones are H or OH. Square brackets hold non-standard residues; d marks the D form. Peptide text beside a SMILES is read from it. * marks the point of attachment. Pro(3R,4S-CMe2) = CC1(C)[C@@H]2[C@@H](C(=O)O)NC[C@@H]21; X1 = O=C(C(=O)[*:2])C(CC1CC1)N[*:1]; Phg = N[C@H](C(=O)O)c1ccccc1; Tle = CC(C)(C)[C@H](N)C(=O)O; Boc = CC(C)(C)OC(=O)*

compound	AUC
CN(C)C(=O)[C@@H](NC(=O)CNC(=O)C(=O)C(CC1CC1)NC(=O)[C@@H]1[C@@H]2[C@H](CN1C(=O)[C@@H](NC(=O)OC(C)(C)C)C(C)(C)C)C2(C)C)c1ccccc1 (stereo partly drawn) (Boc-[Tle][Pro(3R,4S-CMe2)][X1]G[Phg]-NMe2)	0.35 µM·h

###

Test: Oral bioavailability in monkey at 3 mg/kg, po
Format: ADME, organism-based, Macaca mulatta
Details: rhesus monkey, in vivo
Numbered stars: 1 amine (or outer) side, 2 acyl side, 3 side chain; on linkers, the order of the positions; unused ones are H or OH. Square brackets hold non-standard residues; d marks the D form. Peptide text beside a SMILES is read from it. * marks the point of attachment. Pro(3R,4S-CMe2) = CC1(C)[C@@H]2[C@@H](C(=O)O)NC[C@@H]21; X1 = O=C(C(=O)[*:2])C(CC1CC1)N[*:1]; Phg = N[C@H](C(=O)O)c1ccccc1; Tle = CC(C)(C)[C@H](N)C(=O)O; Boc = CC(C)(C)OC(=O)*

compound	unitAnnotation	bioavailability
CN(C)C(=O)[C@@H](NC(=O)CNC(=O)C(=O)C(CC1CC1)NC(=O)[C@@H]1[C@@H]2[C@H](CN1C(=O)[C@@H](NC(=O)OC(C)(C)C)C(C)(C)C)C2(C)C)c1ccccc1 (stereo partly drawn) (Boc-[Tle][Pro(3R,4S-CMe2)][X1]G[Phg]-NMe2)	%	1
